tested on: T-47D breast; test: NCI tumour cell line growth inhibition, 48 h
Please enter Met where TGI is greater than or equal to 5 µM, and Not met where it is lower.

Solved entries:
Nc1ccc2c(c1)N(C(=O)c1cc3cc(NC(=O)c4cc5ccccc5o4)ccc3[nH]1)CC2CCl (stereo unspecified): Not met
CS(=O)(=O)Nc1ccc2c(c1)oc(=O)c1ccccc12: Met
Clc1nc2ccccc2nc1CI: Met

Q) Check this compound for TGI at or above 5 µM: COc1cnc2c(c1)C(=O)c1c-2n(CCCNC(C)C)c(=O)c2cc(Cl)ccc12
A) Not met

Q) Can [Cl][Hg][c]1cc(Br)cc(Br)c1 be said to have TGI at or above 5 µM?
A) Met

Q) Please tell me: is the compound CCOC(=O)C1=C(C)N(Cc2ccc(Cl)cc2Cl)C2(O)C=CC(=O)C3C(=O)N(c4ccccc4)C(=O)C132 (stereo unspecified) at or over 5 µM in terms of TGI?
A) Not met

Q) Quick check, TGI >= 5 µM? CCN(CC)CCOc1ccc(-c2nc3cc(Cl)ccc3s2)cc1
A) Not met

Q) Decide: is the reported value of TGI for N=C1/C(=C/c2ccc(F)cc2)C(=O)N=C2SC=NN12 equal to or greater than 5 µM?
A) Met

###

Each entry below carries its recorded TGI.
test system: A549 NSCLC; test: NCI tumour cell line growth inhibition, 48 h

Answered examples (3):
COc1ccc(C2C(Cl)C(=O)N2n2cnc3ccccc3c2=O)cc1 (stereo unspecified): > 100 µM
CCCCCCNC(=O)c1cc(NCc2cc(O)ccc2O)ccc1O: 71.5 µM
N#Cc1c(-c2ccc(Cl)cc2)c2c([nH]c1=O)-c1ccccc1SC2: > 100 µM

Q) TGI for OC1[C@@H]2[C@@H](O)[C@H](O)[C@@H](O)N2C[C@@H]1O (stereo partly specified) ?
A) > 100 µM

Q) GET /values?readout=TGI&item= O=C(Cc1ccc(/C=C/C(=O)c2ncc[nH]2)cc1)Nc1cc(F)c(F)c(F)c1
A) 17.8 µM

Q) Requested read-out: TGI. Entry: O=C(O)c1ccc(Nc2c3ccccc3nc3ccccc23)cc1
A) > 100 µM

Q) Dear colleague, I am looking for the recorded TGI of the following molecule: Cc1ccc(S(=O)(=O)N(CC(=O)O)c2ccccc2)cc1
A) > 100 µM

Q) Which TGI is listed for Cc1c([N+](=O)[O-])ccc2c(NCCCN(C)C)ccnc12 ?
A) 40.5 µM

Q) Which TGI value belongs to CCCCCCCCCC1(N=[N+]=[N-])C(=O)c2ccccc2N(C)C1=O (stereo unspecified) ?
A) 95.1 µM

Q) Recorded TGI for NC1CC(=O)c2c(Br)csc21 (stereo unspecified) , please?
A) > 100 µM

Q) Please look up its TGI: [N-]=[N+]=NC12CC3C4CC5CC3C(C1)C(C5)C4C2
A) > 100 µM

###

test system: MOLT-4 leukemia; experiment: NCI tumour cell line growth inhibition, 48 h
experimental.endpoint: TGI

CC(C)(Cl)C(Br)CCC(C)(Cl)C(Br)CBr (stereo not given): > 100 µM
CC(=O)O[C@H]1C[C@H]2[C@@H](OC(C)=O)/C=C3\C[C@](C)(C(=O)[C@H](O)C(=C1C)C2(C)C)[C@@H](O)C[C@@H]3OC(=O)[C@H](O)[C@H](c1ccccc1)N(C)C: > 100 µM

Q) // fetch MOLT-4 leukemia TGI for CN(C)/C=N/c1nc2c(ncn2C2OC(CO)C(O)C2O)c(=O)[nH]1 (stereo not given)
A) > 100 µM

Q) I'm curious: which TGI was measured for CCN(CC)CCC(=O)/C=C/c1ccccc1 tested on MOLT-4 leukemia?
A) 24.2 µM

Q) Find the measured TGI: item Cc1ccc(NC(=O)C(=O)C(C(=O)c2ccc3ccccc3c2)C2OC(=O)c3ccccc32)cc1C (stereo not given) , target or system MOLT-4 leukemia.
A) 25.9 µM

Q) Report TGI for COc1ccc2c3c([nH]c2c1[N+](=O)[O-])C(C)=NCC3 tested on MOLT-4 leukemia.
A) > 100 µM

Q) Query the reported TGI for MOLT-4 leukemia; item: Nc1c2c(nc3cc(F)c(F)cc13)CCC2
A) > 100 µM

Q) Identify the measured TGI of CC(C)(Br)C(Br)CCC1(C2CO2)CO1 (stereo not given) for MOLT-4 leukemia.
A) > 5 µM

Q) Query the reported TGI for MOLT-4 leukemia; item: C1C2CC3CC1CC(Nc1nc(NC45CC6CC(CC(C6)C4)C5)nc(NC45CC6CC(CC(C6)C4)C5)n1)(C2)C3
A) > 100 µM

Q) State its TGI on MOLT-4 leukemia: CCCN=C(N)NC#N
A) > 100 µM

Data provenance is PubChem BioAssay (NCI).
